Experiment: Cytotoxicity against human SF539 cells at 10 uM after 48 hrs by SRB assay
Format: functional
Conditions: SF-539, 48 h, read-out: GI

| mol | inhibition of growth at 10 µM |
| --- | --- |
| Cc1nc2cc(Nc3nc(Nc4ccc(F)cc4)nc(-c4cccs4)n3)ccc2n1Cc1ccccc1 | 40.1% |
| Cc1nc2cc(Nc3nc(Nc4ccc(O)cc4)nc(Nc4ccc(F)cc4)n3)ccc2n1Cc1ccccc1 | 6.34% |
| Cc1nc2cc(Nc3nc(Nc4ccc(F)cc4)nc(-c4ccccc4)n3)ccc2n1Cc1ccccc1 | 0.21% |
| Cc1nc2cc(Nc3nc(Nc4ccc(F)cc4)nc(-c4ccc(Cl)cc4)n3)ccc2n1Cc1ccccc1 | 7.42% |
| Cc1nc2cc(Nc3nc(Nc4ccc(F)cc4)nc(Nc4ccc(F)cc4)n3)ccc2n1Cc1ccccc1 | 10.4% |
| Cc1nc2ccc(Nc3nc(NCCN)nc(Nc4ccc(F)cc4)n3)cc2n1Cc1ccccc1 | 0.19% |
| Cc1nc2ccc(Nc3nc(Nc4ccc(F)cc4)nc(N4CCCCC4)n3)cc2n1Cc1ccccc1 | 2.48% |
